The origin of these recorded values is ChEMBL document CHEMBL1201862.

tested on: UACC-257; assay: NCI tumour cell line growth inhibition, 48 h
Activity calls are given as the source filed them. Rule as the data show it: active = GI50 up to about 1.1 µM and inactive = higher.
Measured GI50, listed per entry for reference.

CSc1nc2c(nc(N)n2C2OC(CO)C(O)C(O)C2O)c(=O)[nH]1 (stereo not given) :: > 100 µM (inactive)

Which GI50 value is on record for `O=c1[nH]c(Nc2nc3ccccc3[nH]2)nc2c1CCC2` ? > 100 µM (inactive)

Also COc1cc(S(=O)(=O)Nc2ccc(-c3csc(N4C(=O)CSC4c4ccccc4O)n3)cc2)ccc1Cl (stereo not given) ? 27.7 µM (inactive)

Try the compound C=CC(C)(C)[C@@]12CC3C(=O)N[C@@H](Cc4ccccc4)C(=O)N3[C@@H]1N(C(C)=O)c1ccccc12 (stereo not given in full) 68.4 µM (inactive)

Same again, this time with `COC(=O)C1=CNC(C(=O)OC)=NN1` > 100 µM (inactive)

Input `O=C(CCc1ccc(O)cc1)NCCCNC(=O)CCc1ccc(O)cc1` > 100 µM (inactive)

Next up: `CCN(CC)CCC(=O)c1ccc(Oc2ccc(C)cc2)cc1` 19.2 µM (inactive)

Here is the next compound: `CC(C)c1ccc(NC(=S)NC(=O)c2ccccc2)cc1` 14.8 µM (inactive)

Please give the result for `O=C(Cc1ccccc1)NN1C(=O)/C(=C\c2cccc(O)c2)S/C1=N\c1ccccc1` too. > 100 µM (inactive)

Check `O=C1Nc2cccc(Cl)c2/C1=C\c1c(-c2ccccc2)nc2n1CCS2` too. 21.4 µM (inactive)
